test method notes: in vitro
condition info: human, hek293t cells
Label key: y means viability at 48 h, 25 µM under 80%; n means viability at 48 h, 25 µM of 80% or more.

Solved cases below.
{"compound": "Cc1ccc(NC(=O)C(C#N)=Cc2ccccc2OC(F)F)c(C)c1 [9-K17]", "category": "n"}
{"compound": "C=CC(=O)N(Cc1cc(F)c(F)c(F)c1)C(C)C1CCCO1 (stereo not shown) [1-L13]", "category": "n"}
{"compound": "Cc1nc2n(n1)CCCC2NC(=O)CCl (stereo not shown) [7-F12]", "category": "y"}
{"compound": "CC(Cl)C(=O)NCCc1csc(N2CCCC2)n1 (stereo not shown) [7-O08]", "category": "n"}
{"compound": "Cc1cc(C(C)N(Cc2c(C)noc2C)C(=O)CCl)c(C)o1 (stereo not shown) [5-E16]", "category": "y"}

Below 80% on viability at 48 h, 25 µM? Entry N#CC(=Cc1ccc(O)c([N+](=O)[O-])c1)C(=O)Nc1ccccc1C(=O)O [9-G10]
n

What do you have for COc1cc(C=C(C#N)C(=O)NC(C)C)sn1 [9-N12] ?
n

What do you have for Cc1ccc(C=C(C#N)C(=O)NC2CCCC2)cc1C [8-E12] ?
y

What do you have for O=C(CCl)NCC(=O)Nc1nccs1 [5-G22] ?
y

What do you have for O=CN1CCN(C(=O)CCl)CC1 [6-M17] ?
y

What do you have for CC(Cl)C(=O)N1CC(S(=O)(=O)Nc2ccccc2)C1 (stereo not shown) [7-G05] ?
n

What do you have for C=CC(=O)NC1CCCN(Cc2ccccc2)C1=O (stereo not shown) [2-L13] ?
y

What do you have for CC(Cl)C(=O)Nc1ccc([N+](=O)[O-])cc1Cl (stereo not shown) [4-J17] ?
n

* * *

test method notes: in vitro
condition info: human, hek293t cells
Hi there, I'd appreciate the recorded viability at 48 h, 25 µM for every entry that follows.
One number for each entry, in %.

Here's what some known entries look like.
{"molecule": "O=C(CCl)N1c2ccccc2Sc2ccc(Cl)cc21", "viability at 48 h, 25 µM / %": 122}
{"molecule": "Cc1ccc(C2=NN(C(=O)CCl)C(c3cccs3)C2)cc1 (centres unmarked)", "viability at 48 h, 25 µM / %": -0.0957}
{"molecule": "COc1ccc2c(c1)OCCN(C(=O)C(C)Cl)C2 (centres unmarked)", "viability at 48 h, 25 µM / %": 122}
{"molecule": "C=CC(=O)NC[C@@H]1C=C[C@H]2C[C@@H]1CO2 (racemic)", "viability at 48 h, 25 µM / %": 78.1}
{"molecule": "CC(Cl)C(=O)N1CCCN(c2ccc(-c3ccccc3)nn2)CC1 (centres unmarked)", "viability at 48 h, 25 µM / %": 76.7}
{"molecule": "COc1ccc(-c2csc(NC(=O)CCl)n2)cc1", "viability at 48 h, 25 µM / %": 0.915}
{"molecule": "CS(=O)(=O)Nc1ccc(C(=O)CCl)cc1", "viability at 48 h, 25 µM / %": 76.6}
{"molecule": "C=CC(=O)N(C)CC(=O)NC(C)(C)c1nc(C)cs1", "viability at 48 h, 25 µM / %": 87.9}
{"molecule": "COc1ccc([N+](=O)[O-])cc1N1C(=O)C=CC1=O", "viability at 48 h, 25 µM / %": 102}
{"molecule": "O=C(CCl)Nc1ccc(S(=O)(=O)N2CCCC2)cc1", "viability at 48 h, 25 µM / %": 1.07}

Using the record for `CC(C)NC(=O)C(C#N)=Cc1ccc(Cl)cc1` , report its viability at 48 h, 25 µM.
86.7
